assay: NCI Yeast Anticancer Drug Screen. Data for the sgs1 mgt1 strain (AID 161);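 further: 0% = growth of cultures given vehicle only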; details: S. cerevisiae sgs1 mgt1 strain, at 5.0 µM (retest, dose inferred, filed as 0.5), stronger effect = higher value
This is part of a sample that, as a whole, favours compounds with a hit. Of some 79,000 tested, about 15% had one in any assay.
Decision: growth inhibition compared against 20%; not below it gives satisfied, below it gives not satisfied.

# count of solved cases: 2
| Compound | Assigned Class |
| --- | --- |
| Cc1ccc(Nc2c3c(c(C#N)c4nc5ccccc5n24)CCCC3)cc1 | not satisfied |
| Cc1ccc(S(=O)(=O)N/N=C/C2(c3ccccc3)c3ccccc3-c3ccccc32)cc1 | satisfied |

Check if growth inhibition >= 20% (inclusive). Item: CO[C@@]12[C@H](COC(N)=O)C3=C(C(=O)C(C)=C(N)C3=O)N1C[C@@H]1N[C@@H]12
satisfied

Check this compound for growth inhibition at or above 20%: CC(=O)OCC1OC(O[C@H]2C=C[C@@H](C(=O)OCc3ccccc3)n3c(=O)n(-c4ccccc4)c(=O)n32)C(OC(C)=O)C(OC(C)=O)C1OC(C)=O (some centres undefined)
satisfied

Please tell me: is the compound O=C1C=CC(=O)N1c1ccc(N2C(=O)C=CC2=O)cc1 at or over 20% in terms of growth inhibition?
not satisfied

* * *

assay: NCI Yeast Anticancer Drug Screen. Data for the mec2-1 strain (AID 157); settings: S. cerevisiae mec2-1 strain, at 33.0 µM, stronger effect = higher value
This is part of a sample that, as a whole, favours compounds with a hit. Of some 79,000 tested, about 15% had one in any assay. Calls of active or inactive are those of the source. Cut-off read from the data, not from the text of the source: active = growth inhibition above about 70%; inactive = the rest.
Readout Label: growth inhibition

Look over these answered cases.
| Compound | growth inhibition |
| --- | --- |
| CCCCCCCCCCCCCCCCCCNC(=S)/N=C\C1=C(O)c2ccccc2C1=O | 2% (inactive) |
| Cc1ccc(I)cc1N=C=S | 82% (active) |
| COc1ccc(N=N/C(=N\NC(=O)c2cc(Br)ccc2O)c2ccc(N(CCC#N)CCC#N)cc2OC)cc1 | 13% (inactive) |
| CCN(CC)CCNC(=O)c1nn(-c2ccc(Cl)cc2)c2c1CCc1cc(OC)ccc1-2 | 0% (inactive) |
| CCN1/C(=C/c2ccc3ccccc3[n+]2CC)C=Cc2ccccc21 | 99% (active) |
| COc1ccc(C(C#N)=C2C=CC(=NO)C=C2)cc1 | 97% (active) |

Let's switch to this compound now.
Can you look up the measured growth inhibition of OC(CN1CCCCC1)c1cc(Cl)c(Cl)c(Cl)c1 (stereo unspecified) for me?
24% (inactive)

* * *

assay: NCI Yeast Anticancer Drug Screen. Data for the rad50 strain (AID 155);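 further: 0% = growth of vehicle-only cultures of the same strain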; details: S. cerevisiae rad50 strain growth inhibition; at 50.0 µM (retest, dose inferred, filed as 5.0); stronger effect = higher value
About 79,000 compounds went through this panel and 15% of them were active in at least one assay; those are over-represented in the sample as a whole. Active and inactive are the calls of the source. No stated cut-off is given here; in the data, active means growth inhibition above about 70%; inactive means the rest.
Measured growth inhibition accompanies every entry in the list below.

| Molecule | growth inhibition |
| --- | --- |
| O=C1NC(c2c(Cl)cccc2Cl)Nc2ccccc21 (stereo not given) | 100% (active) |

Which growth inhibition is reported for this molecule? O=c1ccc(N=Nc2ccccc2)ccc1O
99% (active)

Looking for the measured growth inhibition of Nc1cc(S(N)(=O)=O)ccc1SSc1ccc(S(N)(=O)=O)cc1N , can you help?
52% (inactive)

For the molecule shown here, N#C/C(=C1C=C(Br)/C(=N\O)C=C\1Cl)c1cccc2ccccc12 , give the reported growth inhibition.
98% (active)

* * *

assay: NCI Yeast Anticancer Drug Screen. Data for the wt1 strain (AID 149);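 further: 0% = growth of vehicle-treated wt1 cultures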; conditions: S. cerevisiae wt1 strain (SPY 50644) growth inhibition; at 3.7 µM; stronger effect = higher value
Compounds without any hit were thinned out: in the full panel of roughly 79,000, 15% have a hit.
Overview of recorded growth inhibition for various compounds
# value in %; strip the unit string

| Compound | Reading |
| --- | --- |
| O=NN(CCCl)C(=O)NCCCl | -2 |
| NNC(=S)Nc1cccc2ccccc12 | -17 |
| BrCc1ccccc1C(c1ccccc1)c1ccccc1 | 34 |
| N#C/C(=C1C=C/C(=N/O)c2ccccc2/1)c1ccccc1 | -4 |
| CCOc1ccc(C(=O)CCC(=O)O)c(C)c1 | -1 |

// next item, growth inhibition requested
Give its growth inhibition value. Item: O=C1c2ccccc2CCC1(Br)Br
11

* * *

experiment: NCI Yeast Anticancer Drug Screen. Data for the wt1 strain (AID 149);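 further: 0% = growth of vehicle-treated wt1 cultures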; settings: S. cerevisiae wt1 strain (SPY 50644) growth inhibition; at 3.7 µM; stronger effect = higher value
The panel holds about 79,000 compounds, 15% with a hit somewhere; the sample as a whole holds those more often.
Entries and their growth inhibition
Give the value in % but do not write % after it.

Worked examples, 2 compounds total:
| Compound | Unit Of Measurement | growth inhibition |
| --- | --- | --- |
| CN(N=O)c1ccc(/C=C/c2ccnc3ccccc23)cc1 | % | 2 |
| O=C1CSC(=S)N1Cc1ccc(Cl)cc1Cl | % | 24 |

Tell me the measured growth inhibition of Cc1ccc2occ/c(=N\Nc3ccccc3)c2c1 , please.
-5

Can you look up the measured growth inhibition of Cc1cc(O)c2c(c1O)C(=O)C13C(=C2O)C(=O)C2C(O)C1C1C(O)C3C(=O)C3=C(O)c4c(O)cc(C)c(O)c4C(=O)C321 (configuration not stated) for me?
2

What does the record list as growth inhibition for CCN(CC)N=Nc1c(C(N)=O)n[nH]c1C ?
-5

May I ask what growth inhibition has been recorded for Cc1cccc(/C=N\NC(=S)N2CCCCC2)n1 ?
92

Record request: growth inhibition value, item COC(=O)c1n[nH]c(C)c1N=NN(C)CCC#N
-5

Give its growth inhibition value. Item: CCOC(=O)CNC(=O)c1[nH]cnc1/N=N/N(C)C
9

I have this compound here, CC(=O)[C@]1(O)Cc2c(O)c3c(c(O)c2[C@@H](OC2CC(N)C(O)C(C)O2)C1)C(=O)c1c(OCc2ccccc2)cccc1C3=O (some centres not stated) , and I need its recorded growth inhibition.
-4

Record request: growth inhibition value, item CCN(CC)CC(O)c1cc(-c2ccc(Cl)cc2)nc2c(-c3ccccc3)cccc12 (configuration not stated)
-2

Consider the compound CN(C)c1ccc(/C=C/c2ccnc3ccccc23)cc1N and give its measured growth inhibition.
-4

// lookup growth inhibition for CC(=O)[O-].O=C([CH-]C(=O)c1ccccc1)c1ccccc1.O=C([CH-]C(=O)c1ccccc1)c1ccccc1.[Sm+3]
4

For Clc1c(Cl)c(Cl)c2c(nnn2C2CCCO2)c1Cl (configuration not stated) , what is its reported growth inhibition?
-1

I have this compound here, NC(N)=NCCCS(=O)(=O)Nc1ccc(Nc2c3ccccc3nc3cc([N+](=O)[O-])ccc23)cc1 , and I need its recorded growth inhibition.
-18

Field request: growth inhibition | item: Nc1nc(N)c2cc(Sc3ccc4ccccc4c3)ccc2n1
10

Bench note: what growth inhibition did O=C1CC(=O)N(C2CCCCC2)C(=O)N1c1ccccc1S(=O)(=O)Oc1ccccc1 show?
-5

* * *

Assay: NCI Yeast Anticancer Drug Screen. Data for the rad50EPP+ strain (AID 151);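 further: 0% = growth of vehicle-treated control cultures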
Conditions: S. cerevisiae rad50 mutant strain, at 100.0 µM
Description: Growth inhibition of yeast strains with defined genetic alterations is measured as a screen for potential anti-cancer activity. Selected strains with alterations in DNA damage repair or cell cycle control were exposed to compounds and growth inhibition was measured relative to vehicle treated controls. The strain used in this assay is rad50EPP+
Compounds without any hit were thinned out: in the full panel of roughly 79,000, 15% have a hit. Activity calls are given as the source filed them. Cut-off read from the data, not from the text of the source: active = growth inhibition above about 70%; inactive = the rest.
Bench note: report the call from 1 = active, -1 = inactive

Some entries whose results are on file:
| Compound | Assigned Class |
| --- | --- |
| NNC(=S)Nc1cccc2ccccc12 | -1 |
| Cc1cc(C)c(N2C(=O)CC(Sc3ccccc3N)C2=O)c(C)c1 (stereo unspecified) | -1 |
| Cc1ccc(S(=O)(=O)N(C)c2ccc(Cl)cc2C2=NCCc3ccccc32)cc1 | -1 |
| COCCCN(Cc1cc(OC)c(OC)c(OC)c1)C(=S)Nc1cccc(Cl)c1 | -1 |
| CCCCCC(=O)c1ccc(O)cc1O | 1 |

Short answer needed: outcome of this test for CC(C)c1cccc(O)c(=O)c1 ?
1

* * *

assay: NCI Yeast Anticancer Drug Screen. Data for the rad14 strain (AID 159);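 further: 0% = growth of vehicle-treated control cultures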; conditions: S. cerevisiae rad14 strain growth inhibition; at 11.0 µM; stronger effect = higher value
This is part of a sample that, as a whole, favours compounds with a hit. Of some 79,000 tested, about 15% had one in any assay. Calls of active or inactive are those of the source. Cut-off read from the data, not from the text of the source: active = growth inhibition above about 70%; inactive = the rest.
Reported growth inhibition by item:

| Molecule | growth inhibition |
| --- | --- |
| CCOC(=O)[C@]1(Br)CC[C@@]1(Br)C(=O)OCC | 14% (inactive) |
| O=C(/C=C\c1ccc([N+](=O)[O-])o1)Nc1ccc(Cl)cc1 | 91% (active) |
| O=C1OC2C(O)COC2(OCc2c[nH]c3ccccc23)C1O (stereo not given) (tested in a mixture with another compound) | 4% (inactive) |

Please report the recorded growth inhibition for BrCc1ccccc1C(c1ccccc1)c1ccccc1 .
96% (active)

# growth inhibition lookup, item COc1ccc(N=Nc2ccc3oc(=O)c(C(=O)Nc4ccccc4)cc3c2)cc1
96% (active)

Please give the measured growth inhibition for this molecule: O=C1C=CC(=Nc2ccccc2)c2ccccc21
12% (inactive)

Quick one: growth inhibition for N#CC(=S)Nc1cccc(Cl)c1 ?
9% (inactive)

// query growth inhibition value for entry O=C1c2ccccc2CCC1(Br)Br
51% (inactive)

GET /values?readout=growth inhibition&item= O=[N+]([O-])c1c(/C=N/Nc2ccccc2)oc(-c2ccc3c(c2)OCO3)c1-c1ccc2c(c1)OCO2
2% (inactive)

Given Clc1c(Cl)c(Cl)c2n[nH]nc2c1Cl , state its recorded growth inhibition.
-9% (inactive)
